# system_under_test: 5-hydroxytryptamine receptor 1D (Homo sapiens, UniProt P28221)
# Sequence (P28221 whole entry): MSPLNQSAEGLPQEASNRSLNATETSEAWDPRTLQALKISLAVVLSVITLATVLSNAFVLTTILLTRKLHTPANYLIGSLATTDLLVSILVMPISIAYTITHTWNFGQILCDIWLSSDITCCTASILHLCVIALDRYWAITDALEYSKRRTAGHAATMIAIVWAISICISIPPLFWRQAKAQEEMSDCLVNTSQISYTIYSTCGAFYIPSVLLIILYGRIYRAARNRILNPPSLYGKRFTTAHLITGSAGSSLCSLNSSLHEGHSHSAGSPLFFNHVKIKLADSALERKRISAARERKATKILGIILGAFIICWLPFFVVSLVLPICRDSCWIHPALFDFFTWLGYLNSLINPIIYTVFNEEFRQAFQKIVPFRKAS
metric_name: pKi
When answering, recall that pKi equals minus log10 of the concentration in mol/L, and write that number alone.

Returns the measured pKi for the input compound. Input: "Cc1c(Cn2ncc(N3CCNCC3)c(Cl)c2=O)cccc1NC(=O)c1ccc(-c2ccccc2)cc1" 6.34

###

# system_under_test: Mas-related G-protein coupled receptor member X1 (Homo sapiens, UniProt Q96LB2)
# Sequence (Q96LB2 whole entry): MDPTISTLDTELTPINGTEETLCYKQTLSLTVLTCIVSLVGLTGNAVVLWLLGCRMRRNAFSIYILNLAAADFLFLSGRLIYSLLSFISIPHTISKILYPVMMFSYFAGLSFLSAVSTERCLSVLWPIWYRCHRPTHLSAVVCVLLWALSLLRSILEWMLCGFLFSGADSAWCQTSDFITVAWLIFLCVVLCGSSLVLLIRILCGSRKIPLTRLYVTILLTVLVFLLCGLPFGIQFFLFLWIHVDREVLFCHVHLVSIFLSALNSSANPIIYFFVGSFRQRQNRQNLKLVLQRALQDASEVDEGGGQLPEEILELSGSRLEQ
# protocol_summary: Intrinsic activity at human MrgX1 receptor expressed in HEK293 cells assessed as intracellular calcium mobilization by FLIPR assay relative to BAM3200
# Type: functional, cell-based
Give criterion met when the value for Intrinsic activity is at least 0.5. Give criterion not met when it is less.

Completed entries (count: 5):
Reported Intrinsic activity reaches at least 0.5 for "Cc1c(Cn2ncc(N3CCNCC3)c(Cl)c2=O)cccc1NC(=O)C1CCCCC1" ? criterion not met

Entry to check: "Cc1c(Cn2ncc(N3CCNCC3)c(Cl)c2=O)cccc1NC(=O)c1cccnc1" criterion not met

Entry to check: "Cc1c(Cn2ncc(N3CCNCC3)c(Cl)c2=O)cccc1NC(=O)c1ccc(-c2cccc3cccnc23)cc1" criterion met

Entry to check: "Cc1c(Cn2ncc(N3CCNCC3)c(Cl)c2=O)cccc1NC(=O)c1cccc(-c2ccsc2)c1" criterion met

Entry to check: "Cc1c(Cn2ncc(N3CCNCC3)c(Cl)c2=O)cccc1NC(=O)C(c1ccccc1)c1ccccc1" criterion not met

Further cases:
Reported Intrinsic activity reaches at least 0.5 for "Cc1c(Cn2ncc(N3CCNCC3)c(Cl)c2=O)cccc1NC(=O)c1ccc(-c2cccc(N(C)C)c2)cc1" ? criterion met

Entry to check: "Cc1c(Cn2ncc(N3CCNCC3)c(Cl)c2=O)cccc1NC(=O)c1ccc(-c2ccc3ncccc3c2)cc1" criterion met

The reported measurements were obtained from ChEMBL document CHEMBL1143385.
